- test-description: Half life in S9 microsomes
- Type: ADME, subcellular, S9 fraction
property-label: half-life (h)

Worked cases, half-life given:
COc1ccccc1C(=O)c1cnc(NC2CCN(C(=O)Nc3ccc(F)cc3)CC2)nc1N :: 2.53
COc1ccccc1C(=O)c1cnc(NC2CCN(S(=O)(=O)Cc3ccccc3)CC2)nc1N :: 0.133
COc1ccccc1C(=O)c1cnc(NC2CCN(S(C)(=O)=O)CC2)nc1 :: 3.72
COc1ccccc1C(=O)c1cnc(NC2CCN(C(=O)Nc3cccc(F)c3)CC2)nc1N :: 2.82

P = COc1ccccc1C(=O)c1cnc(NC2CCN(S(C)(=O)=O)CC2)nc1C
Q = COc1ccccc1C(=O)c1cnc(NC2CCN(c3nc4ccccc4[nH]3)CC2)nc1N
stdin: Between P and Q , whose measured half-life reads higher? To answer, give the label that identifies your chosen option.
stdout: P
